measurement description: in vivo
setup conditions: BALB/c nude, mouse, in vivo, iv, total radioactivity, uptake Tumor
Description: To a 0.5 M NaOAc buffer (20-50 μL, pH=4.5) was added 4 μL of exemplary or comparator compound in DMSO stock solution (2000 μM) and 2 mCi ^177Lu (ITM Isotope Technologies Munich), the resulting mixture was heated to 95° C. for 15 min. The resulting product was analyzed by radio-TLC and radio-HPLC (column: Shim-pack GIST 5 μm 4.6*150 mm; buffer A: 0.2% formic acid H2O; buffer B: 0.1% formic acid acetonitrile; flow rate: 1 mL/min; gradient: 0-5 min: 10% B to 95% B; then 5-8 min: 95% B). […]
Documented tissue uptake at 24 h across a set of compounds

compound	readout label	reported value
C[C@@H](O)[C@H](NC(=O)[C@@H]1CSSC[C@H](NC(=O)[C@@H](Cc2ccccc2)NC(=O)COCCOCCNC(=O)[C@H](CCCCNC(=O)[C@H](CCC(=O)O)NC(=O)c2cccc(NC(=O)N[C@@H]3CN(C4CCCCC4)c4ccccc4N(CC(=O)C(C)(C)C)C3=O)c2)NC(=O)CN2CCN(CC(=O)O)CCN(CC(=O)O)CCN(CC(=O)O)CC2)C(=O)N[C@@H](Cc2ccc(O)cc2)C(=O)N[C@H](Cc2c[nH]c3ccccc23)C(=O)N[C@@H](CCCCN)C(=O)N[C@@H]([C@@H](C)O)C(=O)N1)C(=O)O [Compound I-27, DOTA-K(-E-Z360)-OEG-f[CYwKTC]T-OH]	tissue uptake at 24 h	28.5 %ID/g

As a next step, examine the compound that follows.
## Input Need tissue uptake at 24 h of C[C@@H](O)[C@H](NC(=O)[C@@H]1CSSC[C@H](NC(=O)[C@@H](Cc2ccccc2)NC(=O)COCCOCCNC(=O)[C@H](CCCCNC(=O)c2cccc(NC(=O)N[C@@H]3CN(C4CCCCC4)c4ccccc4N(CC(=O)C(C)(C)C)C3=O)c2)NC(=O)CN2CCN(CC(=O)O)CCN(CC(=O)O)CCN(CC(=O)O)CC2)C(=O)N[C@@H](Cc2ccc(O)cc2)C(=O)N[C@H](Cc2c[nH]c3ccccc23)C(=O)N[C@@H](CCCCN)C(=O)N[C@@H]([C@@H](C)O)C(=O)N1)C(=O)O [Compound I-37, DOTA-K(Z360)-OEG-f[CYwKTC]T-OH] , thanks.
## Output 23.1 %ID/g

----------
measured on: SSTR2 (Rattus norvegicus)
Construct: host or cells: AR42J cells
Sequence (P30680 whole entry): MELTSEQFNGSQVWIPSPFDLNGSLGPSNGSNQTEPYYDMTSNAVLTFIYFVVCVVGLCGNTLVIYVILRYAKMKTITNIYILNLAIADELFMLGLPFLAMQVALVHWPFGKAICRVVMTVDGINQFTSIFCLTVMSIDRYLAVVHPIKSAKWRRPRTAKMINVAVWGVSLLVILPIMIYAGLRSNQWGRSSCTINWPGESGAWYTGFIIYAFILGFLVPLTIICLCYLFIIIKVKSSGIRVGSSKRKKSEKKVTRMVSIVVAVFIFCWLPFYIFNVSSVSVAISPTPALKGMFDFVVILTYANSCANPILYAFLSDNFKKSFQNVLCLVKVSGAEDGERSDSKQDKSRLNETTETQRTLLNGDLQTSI
measurement description: Competitive cell-binding assay on AR42J cells with 125I-C1 as competitive ligand
setup conditions: based on mean IC50, C-1 = 1.00
Method: AR42J cells (ATCC) were maintained in RPMI-1640 medium (Gibco) supplemented with 15% fetal bovine serum (Gibco) and 1% penicillin-streptomycin (BI) at 37° C. in a humidified incubator with 5% CO2. […] The binding affinities of test compounds were determined by a competitive cell-binding assay using ^125I-C1 and ^125I-C3 as the competitive ligand. […] The filters were collected, and their radioactivity were individually measured by γ counter (2480 WIZARD2, PerkinElmer). […]
Documented Relative Binding Affinity SSTR2 across a set of compounds
# answer = number (no unit)

compound	reported value
C[C@@H](O)[C@H](NC(=O)[C@@H]1CSSC[C@H](NC(=O)[C@@H](Cc2ccccc2)NC(=O)[C@H](CCCCNC(=O)COCCOCCNC(=O)COCCOCCNC(=O)c2cccc(NC(=O)N[C@@H]3CN(C4CCCCC4)c4ccccc4N(CC(=O)C(C)(C)C)C3=O)c2)NC(=O)CN2CCN(CC(=O)O)CCN(CC(=O)O)CCN(CC(=O)O)CC2)C(=O)N[C@@H](Cc2ccc(O)cc2)C(=O)N[C@H](Cc2c[nH]c3ccccc23)C(=O)N[C@@H](CCCCN)C(=O)N[C@@H]([C@@H](C)O)C(=O)N1)C(=O)O [Compound I-42, DOTA-K(-OEG-OEG-Z360)-f]CYwKTC]T-OH]	0.54

## Input Need Relative Binding Affinity SSTR2 of C[C@@H](O)[C@H](NC(=O)[C@@H]1CSSC[C@H](NC(=O)[C@@H](Cc2ccccc2)NC(=O)COCCOCCNC(=O)COCCOCCNC(=O)COCCOCCNC(=O)[C@H](CCCCNC(=O)c2cccc(NC(=O)N[C@@H]3CN(C4CCCCC4)c4ccccc4N(CC(=O)C(C)(C)C)C3=O)c2)NC(=O)CN2CCN(CC(=O)O)CCN(CC(=O)O)CCN(CC(=O)O)CC2)C(=O)N[C@@H](Cc2ccc(O)cc2)C(=O)N[C@H](Cc2c[nH]c3ccccc23)C(=O)N[C@@H](CCCCN)C(=O)N[C@@H]([C@@H](C)O)C(=O)N1)C(=O)O [Compound I-45] , thanks.
## Output 1.36

## Input Need Relative Binding Affinity SSTR2 of C[C@@H](O)[C@H](NC(=O)[C@@H]1CSSC[C@H](NC(=O)[C@@H](Cc2ccccc2)NC(=O)CC[C@H](NC(=O)[C@H](CCCCNC(=O)CC[C@H](NC(=O)CNC(=O)c2cccc(NC(=O)N[C@@H]3CN(C4CCCCC4)c4ccccc4N(CC(=O)C(C)(C)C)C3=O)c2)C(=O)O)NC(=O)CC[C@H](NC(=O)CN2CCN(CC(=O)O)CCN(CC(=O)O)CCN(CC(=O)O)CC2)C(=O)O)C(=O)O)C(=O)N[C@@H](Cc2ccc(O)cc2)C(=O)N[C@H](Cc2c[nH]c3ccccc23)C(=O)N[C@@H](CCCCN)C(=O)N[C@@H]([C@@H](C)O)C(=O)N1)C(=O)O [Compound I-9] , thanks.
## Output 2.85

## Input Need Relative Binding Affinity SSTR2 of C[C@@H](O)[C@H](NC(=O)[C@@H]1CSSC[C@H](NC(=O)[C@@H](Cc2ccccc2)NC(=O)[C@H](CCCCNC(=O)[C@H](CCC(=O)O)NC(=O)c2cccc(NC(=O)N[C@@H]3CN(C4CCCCC4)c4ccccc4N(CC(=O)C(C)(C)C)C3=O)c2)NC(=O)CN2CCN(CC(=O)O)CCN(CC(=O)O)CCN(CC(=O)O)CC2)C(=O)N[C@@H](Cc2ccc(O)cc2)C(=O)N[C@H](Cc2c[nH]c3ccccc23)C(=O)N[C@@H](CCCCN)C(=O)N[C@@H]([C@@H](C)O)C(=O)N1)C(N)=O [Compound I-4, DOTA-K(-E-Z360)-f[CYwKTC]T-NH2] , thanks.
## Output 0.90

----------
measurement description: in vivo
setup conditions: BALB/c nude, mouse, in vivo, iv, total radioactivity, % ID/g Spleen
readout label: tissue uptake at 24 h

## Input Need tissue uptake at 24 h of C[C@@H](O)[C@H](NC(=O)[C@@H]1CSSC[C@H](NC(=O)[C@@H](Cc2ccccc2)NC(=O)CN2CCN(CC(=O)O)CCN(CC(=O)O)CCN(CC(=O)O)CC2)C(=O)N[C@@H](Cc2ccc(O)cc2)C(=O)N[C@H](Cc2c[nH]c3ccccc23)C(=O)N[C@@H](CCCCN)C(=O)N[C@@H]([C@@H](C)O)C(=O)N1)C(=O)O [^177Lu-C-1, metal not drawn, reference compound] , thanks.
## Output 0.04 %ID/g

----------
measured on: CCK2R (Rattus norvegicus, UniProt P30553)
Construct: host or cells: AR42J cells
Sequence (P30553 1-452): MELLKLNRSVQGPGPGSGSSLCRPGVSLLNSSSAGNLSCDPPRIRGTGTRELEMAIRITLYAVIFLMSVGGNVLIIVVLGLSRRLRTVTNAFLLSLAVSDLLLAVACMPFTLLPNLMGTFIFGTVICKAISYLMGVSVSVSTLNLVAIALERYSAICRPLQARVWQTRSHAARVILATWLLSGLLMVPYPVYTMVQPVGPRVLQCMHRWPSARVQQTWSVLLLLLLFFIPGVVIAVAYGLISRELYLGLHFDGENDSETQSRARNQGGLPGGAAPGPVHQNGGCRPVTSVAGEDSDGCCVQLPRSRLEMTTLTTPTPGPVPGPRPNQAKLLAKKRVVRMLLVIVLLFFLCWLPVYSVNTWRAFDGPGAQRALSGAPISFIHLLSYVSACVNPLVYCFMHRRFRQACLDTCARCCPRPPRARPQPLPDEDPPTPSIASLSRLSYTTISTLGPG
measurement description: Competitive cell-binding assay on AR42J cells with 125I-C3 as competitive ligand
readout label: Relative Binding Affinity CCK2R

## Input Need Relative Binding Affinity CCK2R of C[C@@H](O)[C@H](NC(=O)[C@@H]1CSSC[C@H](NC(=O)[C@@H](Cc2ccccc2)NC(=O)[C@H](CCCCNC(=O)COCCOCCNC(=O)COCCOCCNC(=O)COCCOCCNC(=O)c2cccc(NC(=O)N[C@@H]3CN(C4CCCCC4)c4ccccc4N(CC(=O)C(C)(C)C)C3=O)c2)NC(=O)CN2CCN(CC(=O)O)CCN(CC(=O)O)CCN(CC(=O)O)CC2)C(=O)N[C@@H](Cc2ccc(O)cc2)C(=O)N[C@H](Cc2c[nH]c3ccccc23)C(=O)N[C@@H](CCCCN)C(=O)N[C@@H]([C@@H](C)O)C(=O)N1)C(=O)O , thanks.
## Output 50.2
